test: inhibitors of TNFa-induced NFkB p65 translocation, primary screen, imaging, HUVEC, MLSMR starter and 10KST1 sets (AID 438); conditions: HUVEC TNFa-induced p65 nuclear translocation; at 2 µM, stronger effect = higher value, 0% TNFa-plus-vehicle, 100% no-TNFa wells;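 further: compound added about 3h40 before a 20 min TNFalpha stimulation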;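 on inhibition: signal is the nuclear over cytoplasmic p65 intensity ratio per well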
Reported values of inhibition for individual entries
Number in %, nothing else.

Below are worked cases with known answers.
Cc1ccc(Cl)c(Nc2ccccc2C(=O)O)c1Cl; 1.3
N#CC1=C(N)OC2=C(C(=O)CCC2)C1CCc1ccccc1 (centres undefined); 2.3
CC(C)Cc1nc(N2CCOCC2)c(C#N)c2c1CCC2; 3.3
COC(=O)c1ccc(C2NC(C(=O)O)CS2)cc1 (centres undefined); -14.6

**Query** For the molecule `Cc1ccc(S(=O)(=O)NCC(=O)OCN2C(=O)c3ccccc3C2=O)cc1` , what inhibition is on record?
**Result** -4.7

**Query** Look up inhibition: `CCc1nnc(NC(=O)CSc2nc(C)c3c(c2C#N)CCCC3)s1`
**Result** -13.4

**Query** Requested read-out: inhibition. Entry: COc1ccc2c(c1OC)C(=O)N1c3ccccc3SC21 (centres undefined)
**Result** -6

###

assay: DUSP6 inhibitors restoring Erk phosphorylation by chemical complementation, primary imaging in DUSP6-transfected HeLa (AID 609); conditions: HeLa MKP-3 transfected, phospho-Erk imaging KS statistic; measured here: nuclear c-Myc green intensity z-score; at 10 µM; cells stimulated with TPA for 15 min
Kindly return label 1 if reported z-score is no lower than -0.1; return label 0 if it is lower.

N#CC1(c2ccccc2)CCC(=NO)CC1 (configuration not stated); label 1
Cc1cc(C)n(CC(=O)N2c3ccccc3Sc3ccccc32)n1; label 1
Cc1nc(SCC(N)=O)[nH]c(=O)c1Cc1ccc(OC(C)C)cc1; label 1

**Query** Can `CCOC(=O)c1[nH]c2ccc(OC)cc2c1C` be said to have z-score at or above -0.1?
**Result** label 0

**Query** Hello, I need to know if `N=c1nc(N2CCCCC2)cc(N)n1O` has measured z-score not below -0.1. Thanks!
**Result** label 1

**Query** Check this molecule for z-score at or above -0.1: CC(=O)C1=C(O)C(=O)N(Cc2cccnc2)C1c1ccccc1Cl (configuration not stated)
**Result** label 0

**Query** Determine whether this molecule has z-score no lower than -0.1: `OCCCc1nc2ccccc2n1CCc1ccccc1`
**Result** label 0

###

assay: inhibitors of TNFa-induced NFkB p65 translocation, primary screen, imaging, HUVEC, MLSMR starter and 10KST1 sets (AID 438); settings: HUVEC TNFa-induced p65 nuclear translocation; measured here: nuclei count (cytotoxicity indicator), at 2.08 µM;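 further: compound added about 3h40 before a 20 min TNFalpha stimulation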
experimentalEndpoint: cell count
The answer should be a number; do not append a unit.

CCOC(=O)c1sc(-n2[nH]c(C)cc2=O)nc1C; 452
CC(C)OC(=O)[C@H]1[C@H](c2ccc(Cl)cc2)[C@@](C#N)(C(N)=O)[C@@H]2C=CC(C(N)=O)=CN21; 523
N#Cc1c(N)n(CCOC(=O)c2cccc(Br)c2)c2nc3ccccc3nc12; 592
N/C(CCCN1CCCCC1)=N/O; 498
O=c1[nH]c(-c2ccccn2)nc2ccccc12; 336

**Query** Bench note: what cell count did `COCCCNc1nc2c(c(=O)n(C)c(=O)n2C)n1Cc1cccc(OC)c1` show?
**Result** 434

**Query** Which cell count value is on record for `CCOc1nc(SCCOc2ccc(C)cc2)nc(N(C)C)n1` ?
**Result** 346

**Query** Quick check: cell count of COc1ccc(/C(O)=C2\C(=O)C(=O)N(CCN3CCOCC3)C2c2ccccc2OC)cc1 (configuration not stated) ?
**Result** 562

**Query** Query: cell count; subject: `COc1ccc(/C=C/C2=NC(=C\N(C)C)/C(=O)O2)cc1`
**Result** 558

**Query** Look up cell count: `CCN(CC)c1ncc(C)c(=O)[nH]1`
**Result** 410

###

biological target: Voltage-gated potassium channel subunit beta-2 (Rattus norvegicus) (UniProt P62483); assay: KvBeta enzyme negative modulators, primary screen, biochemical, NADPH fluorescence (AID 622); details: recombinant KvBeta, 4-cyanobenzaldehyde reduction, at 10 µM, stronger effect = higher value;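 further: slope of raw intensity against log time taken from 70 to 1610 s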
Sequence (P62483 whole entry, looked up): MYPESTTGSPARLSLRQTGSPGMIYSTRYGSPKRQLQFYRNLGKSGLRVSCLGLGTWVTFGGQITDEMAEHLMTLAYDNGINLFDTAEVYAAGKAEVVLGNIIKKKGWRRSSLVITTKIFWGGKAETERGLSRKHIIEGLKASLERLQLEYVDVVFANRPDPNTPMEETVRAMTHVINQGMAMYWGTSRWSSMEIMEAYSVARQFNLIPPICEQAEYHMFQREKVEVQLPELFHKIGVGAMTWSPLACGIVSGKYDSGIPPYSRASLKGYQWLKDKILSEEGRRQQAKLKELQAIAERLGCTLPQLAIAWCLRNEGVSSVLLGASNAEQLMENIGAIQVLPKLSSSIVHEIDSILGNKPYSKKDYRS
Category key, based on recorded fluorescence slope: bottom range (below -0.5), center range (-0.5 to below -0.4), top range (-0.4 or more)

Solved cases below.
CC(Sc1nc(N2CCCCC2)c2c(c1C#N)CCCC2)C(=O)O (centres undefined); top range
COc1cccc(C2/C(=C(\O)c3ccc4c(c3)OCCO4)C(=O)C(=O)N2CCN(C)C)c1 (centres undefined); bottom range
Cc1cc(=O)oc(C)c1C(=O)N1CCN(C)CC1; center range

**Query** Please let me know in which category the item `CCN(CC)c1ccc2cc(C(=O)Nc3ccccn3)c(=O)oc2c1` belongs.
**Result** center range

**Query** Kindly state the category for this compound: `CCOC(=O)c1c(CN2CCN(C)CC2)n(C)c2cc(Br)c(OC)cc12`
**Result** center range

**Query** Place this compound in its band: `C#CCN(C)Cc1ccccc1`
**Result** center range

**Query** Categorize the following entry: CN=c1sc2ccccc2n1CC(O)COc1ccccc1 (centres undefined)
**Result** top range

**Query** Please indicate the class for CC1CC(C(F)(F)F)n2ncnc2N1 (centres undefined) based on its fluorescence slope.
**Result** bottom range

**Query** Lab note: sort `C=CCSc1nnc2n(CCc3ccccc3)c(=O)c3c4c(sc3n12)COC(C)(C)C4` into the matching fluorescence slope band.
**Result** top range

###

experiment: DUSP6 inhibitors restoring Erk phosphorylation by chemical complementation, primary imaging in DUSP6-transfected HeLa (AID 609); details: HeLa MKP-3 transfected, phospho-Erk imaging KS statistic; measured here: cell density z-score; at 10 µM; cells stimulated with TPA for 15 min
Mark Condition met for reported z-score of 0.1 or greater; mark Condition not met for anything smaller.

Some entries whose results are on file:
CC1(C)Cc2c(c(N3CCOCC3)nc3snc(N)c23)CO1; Condition met
CC(=O)[C@H]1CC[C@H]2[C@@H]3CCC4=CC(=O)CC[C@]4(C)[C@H]3[C@H](O)C[C@]12C; Condition met
CCSc1nc(O)c(C2OC(=O)c3c2ccc(OC)c3OC)c(=O)n1-c1ccccc1 (stereo unspecified); Condition met

**Query** Quick check, z-score >= 0.1? `CCOC(=O)C(NC=O)(NC(C)(C)C)C(=O)OCC`
**Result** Condition not met

**Query** For this compound, is measured z-score 0.1 or higher? `Nc1nnc(CSCc2ccc(F)cc2)s1`
**Result** Condition not met

**Query** Check the entry `C=CCOc1nc2c(c(=O)n(C)c(=O)n2C)n1Cc1ccc(Cl)cc1Cl` : does z-score equal or exceed 0.1?
**Result** Condition not met

###

biological target: Voltage-gated potassium channel subunit beta-2 (Rattus norvegicus) (UniProt P62483); experiment: KvBeta enzyme negative modulators, primary screen, biochemical, NADPH fluorescence (AID 622); conditions: recombinant KvBeta, 4-cyanobenzaldehyde reduction, at 10 µM, stronger effect = higher value;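 further: slope of raw intensity against log time taken from 70 to 1610 s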
Overview of recorded fluorescence slope for various compounds
// response body must contain only the number

Reference set (8 entries):
COc1ccc(OC)c(C2=Nn3c(nnc3-c3ccco3)SC2)c1; -0.399
Cc1c(C(Nc2ccccn2)c2ccccc2)c(=O)n(-c2ccccc2)n1C (stereo unspecified); -0.508
COC(=O)CC1=C(C(=O)OC)C(c2ccncc2)C(C#N)=C(N)O1 (stereo unspecified); -0.366
CCOc1ccc(CCNC(=O)C(O)c2ccccc2)cc1 (stereo unspecified); -0.517
COC(=O)CN(c1nc(C)c(Cl)c(OC)n1)S(=O)(=O)c1ccc(C)cc1; -0.373
Cc1cc(=O)oc(C)c1C(=O)NCCN1CCOCC1; -0.491
CSc1ccc2c(c1)N(CCC1CCCCN1C)c1ccccc1S2 (stereo unspecified); -0.555
CN(C)/C=C1\N=C(c2ccc(Cl)cc2Cl)OC1=O; -0.335

**Query** Suppose we examine the compound `COc1ccc(C(=O)CSC2=C(C#N)C3(CCCCC3)C(C#N)=C(N)N2)cc1` ; what fluorescence slope value has been reported?
**Result** -0.393

**Query** Reported fluorescence slope for CCOC(=O)C1Cc2c([nH]c3ccccc23)C(C)N1 (stereo unspecified) : what is it?
**Result** -0.422

**Query** Given `N#CCc1nc2c3c4c(sc3ncn2n1)CCCC4` , state its recorded fluorescence slope.
**Result** -0.413

###

biological target: Alpha-2C adrenergic receptor (Homo sapiens) (UniProt P18825); experiment: modulators of alpha2C/GIRK thallium flux, primary screen, cell-based, HEK293 alpha2C/GIRK1/2 (AID 624); settings: thallium flux BTC fluorescence, at 10 µM, actives lie on both sides;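 further: slope of fluorescence ratio to pre-addition baseline per second over 15 to 24 s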
Sequence (P18825 whole entry, looked up): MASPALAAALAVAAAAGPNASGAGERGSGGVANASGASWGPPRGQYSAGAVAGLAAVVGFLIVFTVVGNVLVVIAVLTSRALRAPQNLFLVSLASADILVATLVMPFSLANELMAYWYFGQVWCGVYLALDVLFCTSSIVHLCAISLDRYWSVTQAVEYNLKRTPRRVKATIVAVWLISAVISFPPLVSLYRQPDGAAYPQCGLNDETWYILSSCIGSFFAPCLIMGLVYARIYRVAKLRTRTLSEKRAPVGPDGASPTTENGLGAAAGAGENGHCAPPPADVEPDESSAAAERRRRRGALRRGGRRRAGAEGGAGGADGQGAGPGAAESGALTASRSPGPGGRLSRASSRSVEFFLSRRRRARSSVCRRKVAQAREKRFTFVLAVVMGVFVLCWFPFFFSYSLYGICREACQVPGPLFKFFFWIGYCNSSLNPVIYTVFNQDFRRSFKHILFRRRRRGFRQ
The label is Yes for slope below 0.005 and No for slope equal to or exceeding 0.005.

Check out these entries, answers already filled in.
CCCCOc1ccc(C(=O)OC2CC(C)N(C)CC2C)cc1 (configuration not stated); No
CCN(CC)C(=O)CN(C#N)c1nc(NC(C)C)nc(NC(C)C)n1; No
C1CCC(C(CC2CCCCN2)C2CCCCC2)CC1 (configuration not stated); Yes

**Query** Lab log: compare recorded slope with 0.005; is it strictly lower for `COc1ccc(-c2cn3ccsc3n2)cc1` ?
**Result** Yes

**Query** Quick check: does `COCCCNc1nc(-c2ccncc2)nc2ccccc12` have slope under 0.005?
**Result** No

**Query** Given the entry CCCC(CCC)C(=O)OC1C[C@H]2CC[C@@H](C1)[N+]2(C)C (some centres not stated) , would its reported slope be below 0.005?
**Result** No
